System: SW-620
Assay: NCI tumour cell line growth inhibition, 48 h
The source made the active and inactive calls. Rule as the data show it: active = GI50 up to about 1.1 µM and inactive = higher.
Choose one outcome from this list and give only that: 1 = active, -1 = inactive

Some solved cases for reference:
[
  {
    "molecule": "CC1(C)COC(c2cccc(C3=NC(C)(C)CO3)c2)=N1",
    "assigned-label": -1
  },
  {
    "molecule": "O=[N+]([O-])c1ccc(/C=C/c2ccc(/C=C/c3ccc([N+](=O)[O-])cc3[N+](=O)[O-])cc2)c([N+](=O)[O-])c1",
    "assigned-label": -1
  },
  {
    "molecule": "COC(=O)Nc1nc2cc(Oc3ccc4nc(NC(=O)OC)[nH]c4c3)ccc2[nH]1",
    "assigned-label": 1
  },
  {
    "molecule": "Nc1ncnc2c1nnn2C1OC(CO)C(O)C1O (stereo not given)",
    "assigned-label": -1
  },
  {
    "molecule": "CCC(=O)n1c(=O)n(-c2ccc([N+](=O)[O-])cc2)c(=O)n1C(=O)CC",
    "assigned-label": -1
  },
  {
    "molecule": "NC(=O)C1C(=O)Oc2cccnc21 (stereo not given)",
    "assigned-label": -1
  }
]

In this assay, the call recorded for Nc1nc(=O)[nH]cc1F [FLUCYTOSINE] was what?
-1

In this assay, the call recorded for O=C(O)CN1CCN2CCOCCOCCN(CC1)CCN(CC(=O)O)CC2 was what?
-1

###

Tested on: M14
Assay: NCI tumour cell line growth inhibition, 48 h
The source made the active and inactive calls. No stated cut-off is given here; in the data, active = GI50 up to about 1.1 µM and inactive = higher.
Choose one outcome from this list and give only that: true = active, false = inactive

Some solved cases for reference:
[
  {
    "compound": "COc1ccc2c(c1)OCC1Cc3cccc(OC)c3OC21 (stereo not given)",
    "assigned-label": "false"
  },
  {
    "compound": "Cc1cc(C)nc(NS(=O)(=O)c2ccc(NNc3c4ccccc4nc4c(C(=O)Nc5ccc(S(N)(=O)=O)cc5)cccc34)cc2)n1",
    "assigned-label": "false"
  },
  {
    "compound": "O=C1c2ccccc2C(=O)N1CCc1ncc[nH]1",
    "assigned-label": "false"
  },
  {
    "compound": "CC(=O)NC1C(OCc2ccccc2)OC(CO)C(O)C1OCC(=O)N1CCCC1C(=O)NC(CCC(=O)NCCCCCNc1c2ccccc2nc2cccc([N+](=O)[O-])c12)C(N)=O (stereo not given)",
    "assigned-label": "true"
  },
  {
    "compound": "COc1cc2cc(C(=O)N3CC(CCl)c4ccc([N+](C)(C)Cc5ccc([N+](=O)[O-])cc5)cc43)[nH]c2c(OC)c1OC (stereo not given)",
    "assigned-label": "false"
  },
  {
    "compound": "c1ccc(-c2nnc(CCCCCCCCc3nnc(-c4ccccc4)o3)o2)cc1",
    "assigned-label": "false"
  },
  {
    "compound": "C[N+](C)(C)C1(C(=O)[O-])CC1",
    "assigned-label": "false"
  },
  {
    "compound": "CCN(CC)CC(C)C(=O)/C=C/c1ccc(C)cc1 (stereo not given)",
    "assigned-label": "false"
  }
]

In this assay, the call recorded for C=CCN1C[C@H](C)N([C@H](c2ccc(C(=O)N(CC)CCO)cc2)c2cccc(OC)c2)C[C@H]1C was what?
false

In this assay, the call recorded for NC(=O)C1C(=O)Oc2cccnc21 (stereo not given) was what?
false
